B1: CSNK1G1 (parent)
chain: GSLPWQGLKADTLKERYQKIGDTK

variants of: B1; test: protein stability index of a GFP-peptide fusion (GPS, HEK-293T) (PSI 1-6); higher = more stable; conditions: c terminus: a fixed tail appended;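 note: lentivirally expressed fusions sorted by FACS into six bins by GFP to DsRed ratio, PSI derived from sequencing read proportions per bin multiplied by bin number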
observable: protein stability index

> print(dat)
                         seq  data.value
 1  GSLPWQGLKADTLKERYHKIGDTK        4.09
 2  GSLPWQGLKADTLKEQYQKIGDTK        4.44
 3  GSLPWQLLKADTLKERYQKIGDTK        3.44
 4  GSIPWQGLKADTLKERYQKIGDTK        4.55
 5  ASLPWQGLKADTLKERYQKIGDTK        4.05
 6  GSLPWQGLKADTLKERYQRIGDTK        3.75
 7  DSLPWQGLKADTLKERYQKIGDTK        4.35
 8  GSLPWQGLKADTLKERYQKYGDTK        4.29
 9  GSLPWQGLKADTLKERYLKIGDTK        3.91
10  GSGPWQGLKADTLKERYQKIGDTK        4.42
11  GSLPWQGLKADTLKERYQKDGDTK        4.86
12  GSLPWQGLKADTLKERLQKIGDTK        4.19
13  GSLPWQGLKNDTLKERYQKIGDTK        4.62
14  GSLPWQGLKADTLKERYQKVGDTK         4.3
15  GWLPWQGLKADTLKERYQKIGDTK        3.04
16  GSLPWQGLKADTLKERYQKIGDPK        3.91
17  GSVPWQGLKADTLKERYQKIGDTK        4.37
18  GSLPWQGLKVDTLKERYQKIGDTK        4.19
19  GSLPWQQLKADTLKERYQKIGDTK         3.9
20  GFLPWQGLKADTLKERYQKIGDTK        3.73
21  GSLPWQGLKPDTLKERYQKIGDTK        4.39
22  GSLPWQGLKADTLKERYQIIGDTK        3.54
